Tested on: OVCAR-8 ovarian
Experiment: NCI-60 one-dose screen, 48 h (100 = growth as untreated, 0 = no growth, -100 = all killed)
Details: 10 µM
Compounds without any hit were thinned out: in the full panel of roughly 83,000, 20% have a hit.
Property Label: growth (%)
A number alone suffices; assume %.

Sample records with growth:
# Molecule, growth (%)
rows = [
    ("CCOC(=O)c1cc(/C=C/c2cccc(Cl)c2)on1", 99.5),
    ("Cc1cc(N)ccc1-c1ccc(N)cc1C", 90.7),
    ("CC(C)C1CCCCC1O (centres undefined)", 109),
    ("O=C(Nc1ccccc1C(=O)NCC1CC1)c1cccs1", 99.4),
    ("COc1cc(C(N)=O)cc(OC)c1OC", 98.1),
]

Record "CC(=O)Nc1c(C)cc(C)cc1C" , field growth: 104

Record "CN(C)c1ccc2oc(=O)c3ccccc3c2c1" , field growth: 104

Record "Cc1ncc(C#N)c(N)n1" , field growth: 102

Record "COc1ccc(-c2cc(-c3cc(-c4ccc(OC)cc4)nc(N)n3)nc(N)n2)cc1" , field growth: 99.1

Record "CCC(C#N)(CC)c1ccccc1" , field growth: 107

Record O=C1NC(=O)C2C(=O)NC(=O)C1C21CCc2ccccc21 (centres undefined) , field growth: 103

Record "CC(=O)C1CCCCC1" , field growth: 95

Record "Nc1ccc(CC(=O)O)c(N)c1" , field growth: 106

Record CC1(C)/C(=C\CO)C2CCC1C2 (centres undefined) , field growth: 114

Record NC(C(=O)O)C(O)c1ccco1 (centres undefined) , field growth: 103
